assay: Plasma pharmacokinetics of tosedostat, CHR-79888 and paclitaxel (LC-MS/MS, noncompartmental); details: human, plasma, oral, AUC0−t, cohort 4: CHR-2797 180 mg, paclitaxel 175 mg m^−2; day 22, tosedostat in combination with paclitaxel; plasma; mean (±s.e.m.)

# Smiles repr, Unit spec, AUC(0-t)
measured = [
    ("CC(C)C[C@@H](C(=O)N[C@H](C(=O)OC1CCCC1)c1ccccc1)[C@H](O)C(=O)NO", "ng·h/mL", 1710),
]

* * *

assay: Plasma pharmacokinetics of tosedostat, CHR-79888 and paclitaxel (LC-MS/MS, noncompartmental); details: human, plasma, oral, 90 mg, AUC0−t, cohort 2: CHR-2797 90 mg, paclitaxel 175 mg m^−2; day 21, tosedostat without paclitaxel; plasma; mean (±s.e.m.)
Observable: AUC(0-t) (ng·h/mL)

# Smiles repr, Observable, Observed
data = [
    ("CC(C)C[C@@H](C(=O)N[C@H](C(=O)OC1CCCC1)c1ccccc1)[C@H](O)C(=O)NO", "AUC(0-t)", 1890),
]
